Reference source for all entries: patent US9592224B2

target: recombinant human enzyme CK-1δ (Homo sapiens, UniProt P48730); experiment: Enzyme inhibition assay, Luminometer Kinase-GLO method, CK-1δ; settings: casein substrate, 4 μM ATP, 60 minutes at 30° C.; read-out: Inhibitory Concentration 50 (IC50) CK-1δ
Sequence (P48730 whole entry): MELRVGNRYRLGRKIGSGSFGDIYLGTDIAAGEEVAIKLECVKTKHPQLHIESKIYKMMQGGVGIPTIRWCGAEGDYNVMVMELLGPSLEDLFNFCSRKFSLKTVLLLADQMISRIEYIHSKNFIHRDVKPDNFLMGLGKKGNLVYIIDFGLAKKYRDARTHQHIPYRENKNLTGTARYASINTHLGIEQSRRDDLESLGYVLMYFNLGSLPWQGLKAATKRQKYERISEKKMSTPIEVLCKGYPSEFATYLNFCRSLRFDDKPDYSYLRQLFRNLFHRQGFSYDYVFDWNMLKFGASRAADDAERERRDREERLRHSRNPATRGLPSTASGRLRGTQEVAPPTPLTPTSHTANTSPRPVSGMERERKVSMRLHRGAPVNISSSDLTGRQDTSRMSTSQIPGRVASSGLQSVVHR
Exercise: state measured log10 IC50 for each of the molecules provided.
Plainly stated, the numbers are log10 of IC50 given in nM.

Problem: Provide log10 IC50, recorded with recombinant human enzyme CK-1δ (Homo sapiens, UniProt P48730), of COc1ccccc1CC(=O)Nc1nc2ccc(C(F)(F)F)cc2s1 [Compound 8]
Solution: 1.00

Problem: Provide log10 IC50, recorded with recombinant human enzyme CK-1δ (Homo sapiens, UniProt P48730), of O=C(CNC(=O)C(c1ccccc1)c1ccccc1)Nc1nc2ccccc2s1 [Compound 37]
Solution: 3.29

Problem: Provide log10 IC50, recorded with recombinant human enzyme CK-1δ (Homo sapiens, UniProt P48730), of COc1ccc2nc(NC(=O)Cc3cccc(Cl)c3)sc2c1 [Compound 22]
Solution: 2.72

Problem: Provide log10 IC50, recorded with recombinant human enzyme CK-1δ (Homo sapiens, UniProt P48730), of O=C(Cc1ccccc1)Nc1nc2ccc(C(F)(F)F)cc2s1 [Compound 12]
Solution: 1.67

Problem: Provide log10 IC50, recorded with recombinant human enzyme CK-1δ (Homo sapiens, UniProt P48730), of O=C(CCc1cccc(Cl)c1)Nc1nc2ccccc2s1 [Compound 47]
Solution: 3.55

Problem: Provide log10 IC50, recorded with recombinant human enzyme CK-1δ (Homo sapiens, UniProt P48730), of COc1ccccc1CC(=O)Nc1nc2ccc(OC(F)(F)F)cc2s1 [Compound 27]
Solution: 2.79

----------
biological target: recombinant human enzyme CK-1δ (Homo sapiens, UniProt P48730); assay: Enzyme inhibition assay, Luminometer Kinase-GLO method, CK-1δ; details: casein substrate, 4 μM ATP, 60 minutes at 30° C.; read-out: Inhibitory Concentration 50 (IC50) CK-1δ
Property Name: IC50 (nM)
Field format: number, assumed nM, no unit text.

Problem: Provide IC50, recorded with recombinant human enzyme CK-1δ (Homo sapiens, UniProt P48730), of O=C(Cc1cccc(C(F)(F)F)c1)Nc1nc2ccc(C(F)(F)F)cc2s1 [Compound 13]
Solution: 87

Problem: Provide IC50, recorded with recombinant human enzyme CK-1δ (Homo sapiens, UniProt P48730), of CCOc1ccc2nc(NC(=O)Cc3ccc(Cl)c(Cl)c3)sc2c1 [Compound 54]
Solution: 3430

Problem: Provide IC50, recorded with recombinant human enzyme CK-1δ (Homo sapiens, UniProt P48730), of CCOc1ccc2nc(NC(=O)C(c3ccccc3)c3ccccc3)sc2c1 [Compound 39]
Solution: 2820

Problem: Provide IC50, recorded with recombinant human enzyme CK-1δ (Homo sapiens, UniProt P48730), of COc1ccc(OC)c(CC(=O)Nc2nc3ccc(C(F)(F)F)cc3s2)c1 [Compound 29]
Solution: 190

Problem: Provide IC50, recorded with recombinant human enzyme CK-1δ (Homo sapiens, UniProt P48730), of O=C(Cc1ccc(Cl)c(Cl)c1)Nc1nc2ccc(C(F)(F)F)cc2s1 [Compound 9]
Solution: 56

Problem: Provide IC50, recorded with recombinant human enzyme CK-1δ (Homo sapiens, UniProt P48730), of CCOC(=O)c1ccc2nc(NC(=O)C(c3ccccc3)c3ccccc3)sc2c1 [Compound 40]
Solution: 6680

Problem: Provide IC50, recorded with recombinant human enzyme CK-1δ (Homo sapiens, UniProt P48730), of O=C(CCc1ccccc1)Nc1nc2ccc([N+](=O)[O-])cc2s1 [Compound 17]
Solution: 570

Problem: Provide IC50, recorded with recombinant human enzyme CK-1δ (Homo sapiens, UniProt P48730), of COc1ccc2nc(NC(=O)Cc3ccc(Cl)c(Cl)c3)sc2c1 [Compound 53]
Solution: 1240

Problem: Provide IC50, recorded with recombinant human enzyme CK-1δ (Homo sapiens, UniProt P48730), of O=C(Cc1ccc(F)cc1)Nc1nc2ccccc2s1 [Compound 18]
Solution: 530

Problem: Provide IC50, recorded with recombinant human enzyme CK-1δ (Homo sapiens, UniProt P48730), of O=C(Cc1cccc(Cl)c1)Nc1nc2ccccc2s1 [Compound 20]
Solution: 850

Problem: Provide IC50, recorded with recombinant human enzyme CK-1δ (Homo sapiens, UniProt P48730), of O=C(Cc1ccccc1)NCC(=O)Nc1nc2ccccc2s1 [Compound 38]
Solution: 6330

Problem: Provide IC50, recorded with recombinant human enzyme CK-1δ (Homo sapiens, UniProt P48730), of O=C(CC(c1ccccc1)c1ccccc1)Nc1nc2ccccc2s1 [Compound 34]
Solution: 2500

Problem: Provide IC50, recorded with recombinant human enzyme CK-1δ (Homo sapiens, UniProt P48730), of CCOc1ccc2nc(NC(=O)Cc3cccc(OC)c3)sc2c1 [Compound 26]
Solution: 990

Problem: Provide IC50, recorded with recombinant human enzyme CK-1δ (Homo sapiens, UniProt P48730), of COc1cccc(CC(=O)Nc2nc3ccc(OC)cc3s2)c1 [Compound 25]
Solution: 420

Problem: Provide IC50, recorded with recombinant human enzyme CK-1δ (Homo sapiens, UniProt P48730), of COc1ccc2nc(NC(=O)Cc3ccccc3OC)sc2c1 [Compound 51]
Solution: 2220

Problem: Provide IC50, recorded with recombinant human enzyme CK-1δ (Homo sapiens, UniProt P48730), of O=C(Cc1ccc(Cl)cc1)Nc1nc2ccc(C(F)(F)F)cc2s1 [Compound 1]
Solution: 65

Problem: Provide IC50, recorded with recombinant human enzyme CK-1δ (Homo sapiens, UniProt P48730), of O=C(Nc1nc2ccc(C(F)(F)F)cc2s1)C(c1ccccc1)c1ccccc1 [Compound 15]
Solution: 260

Problem: Provide IC50, recorded with recombinant human enzyme CK-1δ (Homo sapiens, UniProt P48730), of O=C(COCc1ccccc1)Nc1nc2ccccc2s1 [Compound 35]
Solution: 4370

Problem: Provide IC50, recorded with recombinant human enzyme CK-1δ (Homo sapiens, UniProt P48730), of O=C(Cc1ccc(Cl)c(Cl)c1)Nc1nc2ccc(OC(F)(F)F)cc2s1 [Compound 28]
Solution: 590

----------
Molecular target: recombinant human enzyme CK-1ε (Homo sapiens, UniProt P49674)
Construct: purchased Invitrogen
Sequence (P49674 whole entry): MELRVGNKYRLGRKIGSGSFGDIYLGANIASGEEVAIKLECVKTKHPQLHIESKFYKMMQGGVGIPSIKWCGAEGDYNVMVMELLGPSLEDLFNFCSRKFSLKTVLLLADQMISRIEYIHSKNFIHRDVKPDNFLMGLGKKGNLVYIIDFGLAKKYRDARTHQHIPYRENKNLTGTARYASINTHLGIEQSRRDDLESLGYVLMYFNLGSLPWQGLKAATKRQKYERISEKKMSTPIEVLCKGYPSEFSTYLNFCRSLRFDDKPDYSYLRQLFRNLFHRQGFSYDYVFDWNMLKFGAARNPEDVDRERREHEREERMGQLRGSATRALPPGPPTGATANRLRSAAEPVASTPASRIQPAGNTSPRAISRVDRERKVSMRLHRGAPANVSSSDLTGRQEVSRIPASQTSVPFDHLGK
Assay: Enzyme inhibition assay, Luminometer Kinase-GLO method, CK-1ε
Assay type: biochemical
Method: Enzyme inhibition assays were performed using the Luminometer Kinase-GLO® method. Recombinant human enzyme CK-1δ was purchased from Millipore Iberica SAU and recombinant human enzyme CK-1ε was purchased from Invitrogen. The phosphorylation substration chosen was casein. […] The assays were conducted in buffer using 96-well plates. […] Luminescence was measured after ten minutes using a FLUOstar Optima (BMG Labtechnologies GmbH, Offenburg, Germany) multimode reader. […]
Exercise: state measured inhibition at 10 µM for each of the compounds provided.
Field format: number, assumed %, no unit text.

Problem: Hello, please tell me recorded inhibition at 10 µM for this one: CCOc1ccc2nc(NC(=O)Cc3ccccc3OC)sc2c1 [Compound 52]
Solution: 46

Problem: Hello, please tell me recorded inhibition at 10 µM for this one: CCNS(=O)(=O)c1ccc2nc(NC(=O)C(c3ccccc3)c3ccccc3)sc2c1 [Compound 42]
Solution: 10

Problem: Hello, please tell me recorded inhibition at 10 µM for this one: O=C(CCc1cccc(Cl)c1)Nc1nc2ccccc2s1 [Compound 47]
Solution: 31

Problem: Hello, please tell me recorded inhibition at 10 µM for this one: O=C(Cc1ccccc1)NCC(=O)Nc1nc2ccccc2s1 [Compound 38]
Solution: 37

----------
Exercise: state measured pIC50 for each of the compounds provided.
target: recombinant human enzyme CK-1ε (Homo sapiens, UniProt P49674); experiment: Enzyme inhibition assay, Luminometer Kinase-GLO method, CK-1ε; conditions: casein substrate, 4 μM ATP, 60 minutes at 30° C.; read-out: Inhibitory Concentration 50 (IC50) CK-1ε
pIC50 here is simply -log10 of the concentration when that concentration is written in mol/L.

Problem: Hello, please tell me recorded pIC50 for this one: CCN(CC)S(=O)(=O)c1ccc2nc(NC(=O)C(c3ccccc3)c3ccccc3)sc2c1
Solution: 5.46

Problem: Hello, please tell me recorded pIC50 for this one: COc1ccc(CC(=O)Nc2nc3ccc(OC)cc3s2)cc1
Solution: 5.62

Problem: Hello, please tell me recorded pIC50 for this one: O=C(Cc1ccccc1)Nc1nc2ccccc2s1 [Compound 14, N-(benzothiazole-2-yl)-2-phenylacetamide]
Solution: 5.64

Problem: Hello, please tell me recorded pIC50 for this one: O=C(CNC(=O)C(c1ccccc1)c1ccccc1)Nc1nc2ccccc2s1
Solution: 4.89

Problem: Hello, please tell me recorded pIC50 for this one: COc1ccccc1CC(=O)Nc1nc2ccc(C(F)(F)F)cc2s1
Solution: 6.10

Problem: Hello, please tell me recorded pIC50 for this one: CCOc1ccc2nc(NC(=O)Cc3ccc(Cl)c(Cl)c3)sc2c1
Solution: 4.85

Problem: Hello, please tell me recorded pIC50 for this one: O=C(Nc1nc2ccccc2s1)C(c1ccccc1)c1ccccc1
Solution: 5.14

Problem: Hello, please tell me recorded pIC50 for this one: COc1ccccc1CC(=O)Nc1nc2ccc(OC(F)(F)F)cc2s1
Solution: 5.13

Problem: Hello, please tell me recorded pIC50 for this one: COc1ccccc1CC(=O)Nc1nc2ccc(F)cc2s1
Solution: 5.35

Problem: Hello, please tell me recorded pIC50 for this one: COc1cccc(CC(=O)Nc2nc3ccc(C(F)(F)F)cc3s2)c1
Solution: 6.16

Problem: Hello, please tell me recorded pIC50 for this one: COc1cc(CC(=O)Nc2nc3ccc(C(F)(F)F)cc3s2)cc(OC)c1OC
Solution: 6.43

Problem: Hello, please tell me recorded pIC50 for this one: CCOc1ccc2nc(NC(=O)Cc3cc(OC)c(OC)c(OC)c3)sc2c1
Solution: 5.01

Problem: Hello, please tell me recorded pIC50 for this one: O=C(Cc1cccc(C(F)(F)F)c1)Nc1nc2ccc(C(F)(F)F)cc2s1
Solution: 6.14

Problem: Hello, please tell me recorded pIC50 for this one: COc1ccc2nc(NC(=O)Cc3ccc(Cl)cc3)sc2c1
Solution: 5.06

Problem: Hello, please tell me recorded pIC50 for this one: COc1cc(CC(=O)Nc2nc3ccc(OC(F)(F)F)cc3s2)cc(OC)c1OC
Solution: 6.03
